Molecular target: NaV1.7 (Homo sapiens)
Construct: expressed in transfected cells; host or cells: HEK293, tetracycline-inducible
Sequence (Q15858 whole entry): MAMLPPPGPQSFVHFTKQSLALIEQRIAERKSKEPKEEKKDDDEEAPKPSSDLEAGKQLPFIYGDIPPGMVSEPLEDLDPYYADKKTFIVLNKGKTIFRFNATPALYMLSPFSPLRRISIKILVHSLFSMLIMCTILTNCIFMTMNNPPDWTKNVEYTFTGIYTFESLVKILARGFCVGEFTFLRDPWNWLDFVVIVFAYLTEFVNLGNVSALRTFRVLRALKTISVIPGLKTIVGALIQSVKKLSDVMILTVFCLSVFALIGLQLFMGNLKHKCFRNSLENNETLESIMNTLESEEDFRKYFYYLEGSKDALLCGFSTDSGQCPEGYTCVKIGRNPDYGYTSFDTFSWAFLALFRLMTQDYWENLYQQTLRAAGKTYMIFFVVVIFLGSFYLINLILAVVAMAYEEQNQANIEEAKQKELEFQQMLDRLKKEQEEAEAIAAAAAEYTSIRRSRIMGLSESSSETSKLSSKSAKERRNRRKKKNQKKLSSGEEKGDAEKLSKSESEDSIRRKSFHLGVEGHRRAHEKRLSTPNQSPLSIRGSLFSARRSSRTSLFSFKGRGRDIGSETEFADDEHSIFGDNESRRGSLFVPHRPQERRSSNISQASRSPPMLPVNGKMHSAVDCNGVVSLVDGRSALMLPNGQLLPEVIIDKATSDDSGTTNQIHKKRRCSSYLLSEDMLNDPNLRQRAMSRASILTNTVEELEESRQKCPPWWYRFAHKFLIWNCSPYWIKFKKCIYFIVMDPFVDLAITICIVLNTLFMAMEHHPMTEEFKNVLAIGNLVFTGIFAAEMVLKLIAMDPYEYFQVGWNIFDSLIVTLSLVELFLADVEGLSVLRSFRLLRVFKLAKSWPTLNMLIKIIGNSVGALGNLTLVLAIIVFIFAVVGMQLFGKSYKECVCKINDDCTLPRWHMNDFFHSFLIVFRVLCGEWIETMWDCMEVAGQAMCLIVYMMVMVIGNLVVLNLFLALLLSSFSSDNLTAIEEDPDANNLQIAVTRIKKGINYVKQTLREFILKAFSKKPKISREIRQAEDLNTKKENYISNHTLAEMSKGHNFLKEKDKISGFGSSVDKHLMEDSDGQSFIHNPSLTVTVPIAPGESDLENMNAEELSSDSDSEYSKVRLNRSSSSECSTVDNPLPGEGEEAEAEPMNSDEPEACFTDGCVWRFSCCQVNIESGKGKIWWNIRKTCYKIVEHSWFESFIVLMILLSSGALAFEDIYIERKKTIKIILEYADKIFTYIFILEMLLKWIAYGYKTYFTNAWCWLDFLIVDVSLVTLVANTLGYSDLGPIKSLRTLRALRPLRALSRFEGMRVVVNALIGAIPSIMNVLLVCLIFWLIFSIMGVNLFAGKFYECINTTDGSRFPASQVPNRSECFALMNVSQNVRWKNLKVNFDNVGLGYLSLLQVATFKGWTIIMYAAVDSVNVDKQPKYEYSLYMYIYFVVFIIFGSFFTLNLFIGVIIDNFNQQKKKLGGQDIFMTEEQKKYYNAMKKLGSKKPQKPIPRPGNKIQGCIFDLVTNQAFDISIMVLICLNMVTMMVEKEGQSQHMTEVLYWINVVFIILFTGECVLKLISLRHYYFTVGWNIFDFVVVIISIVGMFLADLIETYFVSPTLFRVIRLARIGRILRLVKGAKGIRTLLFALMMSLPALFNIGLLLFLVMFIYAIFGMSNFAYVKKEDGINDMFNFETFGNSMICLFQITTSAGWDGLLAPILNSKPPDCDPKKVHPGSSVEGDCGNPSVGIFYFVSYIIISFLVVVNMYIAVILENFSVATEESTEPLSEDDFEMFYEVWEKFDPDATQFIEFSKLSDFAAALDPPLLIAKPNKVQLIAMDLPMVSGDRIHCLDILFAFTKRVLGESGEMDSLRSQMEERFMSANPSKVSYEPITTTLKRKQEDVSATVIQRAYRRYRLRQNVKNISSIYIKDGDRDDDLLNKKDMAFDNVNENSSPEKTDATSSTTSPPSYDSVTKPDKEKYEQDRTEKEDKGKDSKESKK
Assay: Whole cell patch clamp, external block of NaV1.7 current
Type: cell-based
Conditions: % inhibition, test concentration 10 μM, compound in external solution, manual whole cell patch clamp; read-out: Nav1.7 Extracellular Inhibition
For each record, write down the corresponding inhibition at 10 µM.

inhibition at 10 µM reading for CCOC(=O)c1cccc(C)c1NC(=O)C[N+]1(Cc2ccccc2)CCCC1 : < 40%

inhibition at 10 µM reading for CNC(=O)C[N+]1(CC(=O)Nc2c(C)cccc2C(=O)OC)CCCC(c2ccccc2)C1 (stereo not shown) [Compound 59A] : < 40%

inhibition at 10 µM reading for CC[N+]1(CC(=O)Nc2c(C)cccc2C(=O)OC)CCCC(c2ccccc2)C1 (stereo not shown) [Compound 65A] : 40 to 70%

inhibition at 10 µM reading for CCOC(=O)c1cccc(C)c1NC(=O)C[n+]1cccc(-c2ccccc2)c1 [Compound 67A] : < 40%
